Target: Transient receptor potential cation channel subfamily V member 2 (Homo sapiens)
Sequence (Q9Y5S1 whole entry): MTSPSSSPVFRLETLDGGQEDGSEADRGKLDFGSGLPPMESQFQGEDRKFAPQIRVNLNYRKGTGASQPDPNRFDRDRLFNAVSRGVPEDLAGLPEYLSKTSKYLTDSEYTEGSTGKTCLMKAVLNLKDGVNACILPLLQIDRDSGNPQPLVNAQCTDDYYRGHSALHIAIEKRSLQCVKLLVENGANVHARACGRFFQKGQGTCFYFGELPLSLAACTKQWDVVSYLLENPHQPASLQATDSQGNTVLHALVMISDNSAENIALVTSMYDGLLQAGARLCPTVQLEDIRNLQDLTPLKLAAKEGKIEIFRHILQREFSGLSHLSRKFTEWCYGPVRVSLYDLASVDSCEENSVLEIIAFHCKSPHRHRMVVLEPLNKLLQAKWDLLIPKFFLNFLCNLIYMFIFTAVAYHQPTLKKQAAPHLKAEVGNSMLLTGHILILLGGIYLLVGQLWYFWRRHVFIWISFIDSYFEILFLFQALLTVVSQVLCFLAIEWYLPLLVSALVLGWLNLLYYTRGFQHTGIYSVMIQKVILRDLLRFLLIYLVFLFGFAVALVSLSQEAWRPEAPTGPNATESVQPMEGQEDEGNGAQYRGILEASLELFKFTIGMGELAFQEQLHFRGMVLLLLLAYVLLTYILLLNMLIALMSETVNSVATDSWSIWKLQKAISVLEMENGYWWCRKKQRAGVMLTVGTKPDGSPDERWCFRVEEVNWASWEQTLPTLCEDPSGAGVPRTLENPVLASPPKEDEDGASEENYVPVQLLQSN
pIC50: −log10 of the molar value.
Test readout: pIC50

Consider the compound shown here: COc1ccc(/C=C/C(=O)Nc2ccccc2C(=O)O)cc1OC [TRANILAST] What is its recorded pIC50? < 5.00
